Record form. Attribute: LC retention time. Fill in for each entry.
test: Other, Phenomenex Kinetex PFP, 100 × 4.6 mm, 5 µm, 45 °C, 0.6 mL/min, estimated dead time 1.8 min; A: water + 0.1% trifluoroacetic acid, pH 2; B: methanol; gradient (min/%B) 0/40 20/72 21/40; details: stereoisomer not certain
One number for each entry, in min.

>>> value_observed("O=C(O)c1ccccc1 [Benzoic acid]")
7.84
>>> value_observed("O=C(C=Cc1ccc(O)c(O)c1)OC(Cc1ccc(O)c(O)c1)C(=O)O (stereo not drawn) [Rosmarinic acid]")
9.57
>>> value_observed("O=C(O)c1cc(O)c(O)c(O)c1 [Gallic acid]")
3
>>> value_observed("COc1ccc(C2CC(=O)c3c(O)cc(OC4OC(COC5OC(C)C(O)C(O)C5O)C(O)C(O)C4O)cc3O2)cc1O (stereo not drawn) [Hesperidin]")
9.9
>>> value_observed("Oc1cc(O)c2cc(O)c(-c3ccc(O)c(O)c3)[o+]c2c1 [Cyanidin]")
10.8
>>> value_observed("COc1cc(-c2[o+]c3cc(O)cc(O)c3cc2O)cc(OC)c1O [Malvidin]")
14.3

Need LC retention time for each of these compounds.
1. O=c1cc2oc(-c3cc(O)c(O)c(O)c3)c(O)cc-2c(O)c1 [Delphinidin]
2. O=C(O)Cc1ccc(O)c(O)c1 [3,4-Dihydroxyphenylacetic acid]
3. O=c1cc(-c2ccc(OS(=O)(=O)O)c(O)c2)oc2cc(OS(=O)(=O)O)cc(O)c12 [Luteolin 7,4-disulfate]
4. O=c1c(O)c(-c2ccc(OS(=O)(=O)O)c(O)c2)oc2cc(O)cc(O)c12 [Quercetin 4-O-sulfate]
5. Cc1ccc(O)c(O)c1 [4-methylcatechol]
6. O=c1cc(-c2ccc(O)c(OS(=O)(=O)O)c2)oc2cc(O)cc(O)c12 [Luteolin 3-sulfate]
7. O=c1cc(-c2ccc(OS(=O)(=O)O)c(O)c2)oc2cc(O)cc(O)c12 [Luteolin 4-sulfate]

8.44
3.74
11.9
14.9
6.24
16.4
17.1

###

Please respond with reported LC retention time for every item in the list.
test: RP, Waters ACQUITY UPLC HSS T3, 100 × 2.1 mm, 50 °C; A: water + 0.1% formic acid, pH 3; B: 30% methanol + 70% acetonitrile + 0.1% formic acid, pH 3; gradient (min/%B) 0/5 1/8 2/15 3/40 4/70 4.5/100 5/100 6.4/100 6.6/5 6.8/5 7/5; conditions: stereoisomer not certain
Give bare numbers, in min.

Dear colleague, could you please provide LC retention time for the molecules listed below?
1. O=Cc1ccc(O)cc1 [4-Hydroxybenzaldehyde]
2. Cn1c(=O)c2c(ncn2C)n(C)c1=O
3. CN(C)CC(=O)O
4. O=C(O)Cc1ccccc1O [2-Hydroxyphenylacetic acid]
5. O=C(O)C(O)Cc1ccc(O)cc1 (stereo unspecified) [p-Hydroxyphenyllactic acid]
6. O=C(O)CC(O)(CC(=O)O)C(=O)O

3.28
3.1
0.49
3.4
2.66
0.67

###

assay: RP, Phenomenex Luna Omega Polar C18, 100 × 2.1 mm, 1.6 µm, 40 °C, 0.5 mL/min, estimated dead time 0.44 min; A: water + 0.5% formic acid; B: acetonitrile + 0.5% formic acid; gradient (min/%B) 0/5 3/50 3.1/100 5/100 5.1/5 7/5; settings: stereoisomer not certain
parameter: LC retention time (min)
Give bare numbers, in min.

>>> value_observed("Oc1ccc(C=Cc2cc(O)cc(O)c2)cc1")
2.96
>>> value_observed("O=c1cc(-c2ccc(O)cc2)oc2cc(OC3OC(CO)C(O)C(O)C3O)cc(O)c12 (stereo not drawn) [Apigenin 7-O-glucoside]")
2.6
>>> value_observed("CC1OC(OC2C(O)C(OCCc3ccc(O)c(O)c3)OC(CO)C2OC(=O)C=Cc2ccc(O)c(O)c2)C(O)C(O)C1O (stereo not drawn) [Verbascoside]")
2.49
>>> value_observed("O=c1cc(-c2ccc(O)c(O)c2)oc2cc(O)cc(O)c12")
3.57
>>> value_observed("O=c1c(O)c(-c2ccc(OS(=O)(=O)O)c(O)c2)oc2cc(O)cc(O)c12 [Quercetin 4-O-sulfate]")
2.93

For each of the compounds below, state LC retention time.
1. O=S(=O)(O)Oc1c(O)cccc1O [Pyrogallol 2-O-sulfate]
2. O=c1c(-c2ccc(O)cc2)coc2cc(O)cc(O)c12
3. COc1ccc(-c2cc(=O)c3c(OC)c(OC)c(OC)c(OC)c3o2)cc1
4. CCCCCCCCCCCCCCCCCc1cc(O)cc(O)c1

1. 1.49
2. 3.49
3. 3.93
4. 4.6
